protocolText: VP16 transactivation reporter inhibitors, counter-screen for LRH-1 inverse agonist project, cell-based, luminescence, high throughput (AID 651615)
runConditions: Gal4-VP16 luciferase reporter cells, at 3.6 µM, hits give high values
valueKind: inhibition (%)

1) COc1cc(/C=C/C(=O)c2ccc(C)cc2)ccc1OCC#N ... 44.4
2) Cc1[nH]c2ccccc2c1/C=N/Nc1ccc([N+](=O)[O-])cc1 ... -3.15
3) O=C(Cn1ncc2c([nH]c3ccccc32)c1=O)Nc1ccc(CN2CCCCC2)cc1 ... -4.27
4) O=C(COc1ccc2c(-c3ccccc3)cc(=O)oc2c1)NCCCn1ccnc1 ... -19.5
5) COc1ccc(N2CCN(C(=O)c3ccc(CNS(=O)(=O)c4cccc(OC)c4)cc3)CC2)cc1 ... 6.88
6) Clc1ccccc1-c1nc(N/N=C/c2cccnc2)c2ccccc2n1 ... -7.84
7) O=C(COC(=O)C1CC1)NCCc1ccc(Cl)cc1 ... -2.95
8) CN(Cc1ccccc1)C1=CC(=[N+]2CCCC2)CC(C)(C)C1 ... 89.6
9) NCC(=O)Nc1ccc(Cl)cc1C(=O)c1ccc[nH]1 ... 39.2
10) Cc1nn(CC(=O)NCCC2=CCCCC2)c(C)c1[N+](=O)[O-] ... -0.8
11) COCCn1c(SCC(=O)Nc2ccc(NC(C)=O)cc2)nc2ccccc2c1=O ... 2.35

---

Tested on: transactivating tegument protein VP16 (Human herpesvirus 1), Gal4-VP16 luciferase reporter
protocolText: VP16 transactivation inhibitors, counter-screen for SRC3 inhibitor project, cell-based, luminescence, high throughput (AID 588794)
runConditions: mammalian cells, VP16-driven luciferase reporter luminescence; at 3.6 µM; hits give high values
Classification field: t = inhibition at or over 30%; f = inhibition under 30%.

1) Cc1ccsc1/C=N/NC(=O)CNC(=O)c1ccccc1 ... f
2) COC(=O)c1ccc2nc(Nc3nc4c(F)cc(F)cc4s3)sc2c1 ... t
3) O=C(N/N=C(\c1ccccc1)c1cccnc1)c1cccc(F)c1 ... t
4) O=C(N/N=C/c1cc(Cl)ccc1O)c1ccncc1 ... t
5) CCCCC(=O)NC(c1ccccc1)c1ccc2cccnc2c1O (configuration not stated) ... t
6) Cc1ccc(C(C)C)c(OCc2ccc(C(=O)N/N=C/c3cccc(O)c3O)cc2)c1 ... t
7) CN1C/C(=C/c2cccnc2)C(=O)/C(=C/c2cccnc2)C1 ... t
8) O=C(Nc1nc2ccccc2s1)C1c2ccccc2Oc2ccccc21 ... f
9) COc1ccccc1OCC(=O)N/N=C/c1c(O)ccc2ccccc12 ... f
10) OCC1OC(n2ccc3c2ncn2ncnc32)C(O)C1O (configuration not stated) ... t
11) COc1ccc(CCNc2ncnc3sccc23)cc1OC ... t

---

testedOn: Nuclear receptor coactivator 2 (Homo sapiens) (UniProt Q15596)
Sequence (Q15596 whole entry, looked up): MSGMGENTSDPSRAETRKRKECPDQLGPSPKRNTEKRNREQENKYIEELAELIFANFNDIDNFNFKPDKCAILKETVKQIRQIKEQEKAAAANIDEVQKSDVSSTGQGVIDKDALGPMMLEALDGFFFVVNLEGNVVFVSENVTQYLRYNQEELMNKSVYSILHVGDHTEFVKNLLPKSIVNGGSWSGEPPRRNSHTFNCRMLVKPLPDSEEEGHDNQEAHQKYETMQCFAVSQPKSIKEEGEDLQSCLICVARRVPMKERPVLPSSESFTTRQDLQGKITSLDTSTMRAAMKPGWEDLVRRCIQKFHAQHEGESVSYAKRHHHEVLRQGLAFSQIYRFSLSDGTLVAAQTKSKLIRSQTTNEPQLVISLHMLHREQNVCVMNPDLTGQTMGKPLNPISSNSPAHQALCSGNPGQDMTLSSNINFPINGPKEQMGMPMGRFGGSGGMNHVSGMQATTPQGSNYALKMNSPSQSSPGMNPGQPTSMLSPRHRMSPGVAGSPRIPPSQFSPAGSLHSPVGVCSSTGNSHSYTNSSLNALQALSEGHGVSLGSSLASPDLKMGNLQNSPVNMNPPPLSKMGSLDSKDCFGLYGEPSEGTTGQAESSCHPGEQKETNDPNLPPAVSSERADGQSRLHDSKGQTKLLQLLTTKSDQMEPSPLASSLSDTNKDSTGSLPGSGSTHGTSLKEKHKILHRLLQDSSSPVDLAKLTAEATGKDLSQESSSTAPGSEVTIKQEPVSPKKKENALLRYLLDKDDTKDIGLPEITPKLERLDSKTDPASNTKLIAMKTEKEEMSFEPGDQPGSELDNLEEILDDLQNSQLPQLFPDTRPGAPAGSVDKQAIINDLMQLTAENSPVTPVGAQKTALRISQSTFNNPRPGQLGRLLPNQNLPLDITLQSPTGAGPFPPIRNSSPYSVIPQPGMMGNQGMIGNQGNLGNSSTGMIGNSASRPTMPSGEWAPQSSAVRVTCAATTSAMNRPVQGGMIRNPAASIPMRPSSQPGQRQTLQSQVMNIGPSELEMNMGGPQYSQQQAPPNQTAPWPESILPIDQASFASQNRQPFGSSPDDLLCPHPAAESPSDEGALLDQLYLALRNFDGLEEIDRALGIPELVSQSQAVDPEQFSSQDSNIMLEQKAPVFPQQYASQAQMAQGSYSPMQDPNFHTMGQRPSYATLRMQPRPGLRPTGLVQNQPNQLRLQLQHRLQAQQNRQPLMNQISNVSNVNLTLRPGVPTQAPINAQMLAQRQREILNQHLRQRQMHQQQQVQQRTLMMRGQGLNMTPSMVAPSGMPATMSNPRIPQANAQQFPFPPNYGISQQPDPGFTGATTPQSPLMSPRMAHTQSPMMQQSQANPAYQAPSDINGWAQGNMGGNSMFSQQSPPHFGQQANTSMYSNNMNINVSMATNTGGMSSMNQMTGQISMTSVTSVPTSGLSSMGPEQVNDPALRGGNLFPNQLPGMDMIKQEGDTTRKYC
protocolText: SRC2 coactivator transcriptional activity inhibitors, confirmation, cell-based, luminescence, HEK293, triplicate (AID 652008);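 also: 0% = DMSO-treated cells and 100% = Gossypol at 36 µM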
runConditions: HEK293 GAL4-SRC2 luciferase reporter, at 8.9 µM
Active and inactive are the calls of the source.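 Rule for the calls: active = mean inhibition above 46.5%, the solvent-only control mean plus 3 SD; inactive = the rest.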
Outcome codes: active, inactive

1. O=C(Nc1ccccc1Oc1ccccc1)c1cc([N+](=O)[O-])ccc1Cl ... active
2. CC(C)(C)OC(=O)N1Cc2ccccc2C[C@H]1C(=O)NCC(=O)Nc1ccc2c(c1)OCCO2 ... active
3. Cc1ccc(S(=O)(=O)c2nc(NCCN(C)C)sc2Cl)cc1 ... inactive
4. CCc1cccc(C)c1NC(=O)CSc1nnc(CCCOc2ccc(Cl)cc2Cl)n1C ... inactive
5. O=C(O)/C=C/C(=O)N(CC1CCCO1)C1CC(=O)N(c2c(Cl)cccc2Cl)C1=O (configuration not stated) ... inactive
6. CCCN1C(=O)C2C(C(=O)Nc3cccc(OC)c3)C3C=CC2(O3)C1C(=O)NC1CCCCC1 (configuration not stated) ... inactive
7. CC(=O)N1/C(=C/c2ccc(N(C)C)cc2)C(=O)c2ccccc21 ... active
8. O=C(N/N=C/c1coc2ccc(Cl)cc2c1=O)c1cc(O)cc(O)c1 ... inactive
9. Cc1ccc(NC(=O)C2CCN(S(=O)(=O)c3ccc(N4CCCC4=O)cc3)CC2)cc1Cl ... inactive
10. COc1cccc(Nc2ncnc3ccc(Br)cc23)c1 ... inactive
11. COc1cccc(NC(=O)Nc2nnc(CC(=O)Nc3ccccc3)s2)c1 ... inactive
12. Cc1cc2sc3ccc(C#CC4(O)CCCCC4)cc3c(=O)c2cc1C ... active
13. CC(C)C[C@@H]1COc2cc(Br)ccc2S(=O)(=O)N1Cc1cn(CCC2OCCCO2)nn1 ... inactive
14. O=C(OC12CC3CC(CC(C3)C1)C2)c1ccc(NCc2cc(O)ccc2O)cc1 ... active
15. CCOc1cc(/C=C/C(=O)c2ccc(C)cc2)ccc1OCC(=O)N(C)C ... inactive
16. COc1ccc(-c2nc(NC(=O)C3CC(=O)N(c4ccc5c(c4)OCCO5)C3)sc2C)cc1 (configuration not stated) ... active
17. Cc1nnc(SCC2=C(C(=O)O)N3C(=O)C(NC(=O)Cn4nc(C)c(Cl)c4C)C3SC2)s1 (configuration not stated) ... inactive
18. C=CCN=C1NN=C(c2cc(C)n(CCOC)c2C)CS1 ... active
19. COc1cc(N(C(C)=O)c2ccc(O)cc2)c2ncccc2c1 ... inactive
20. CCc1ccc(-c2nn(-c3ccccc3)cc2CSC(=N)N)cc1 ... inactive
21. Nc1ccc(C(=O)n2c3ccccc3c3ccccc32)cc1 ... inactive
22. Cc1cc(C)cc(OCC(=O)NCC2CCCO2)c1 (configuration not stated) ... inactive
23. NNC(=O)c1[nH]c2ccc(Br)cc2c1-c1ccccc1 ... inactive
24. Nn1cnnc1SCC(=O)N1CCc2ccccc2C1 ... inactive
25. CC(C)c1cc(CNC(=O)c2ccc(OC3CCN(Cc4ccccn4)CC3)cc2)on1 ... inactive
26. CCC1CCCCN1S(=O)(=O)c1ccc(NC(=O)c2nc(S(C)(=O)=O)ncc2Cl)cc1 (configuration not stated) ... active
27. O=C(NC1CCCCC1)C(c1cccnc1)N(C(=O)CCl)c1cccc(Cl)c1 (configuration not stated) ... active
28. COc1ccc(S(=O)(=O)Nc2cc(Sc3ncn[nH]3)c(O)c3ccccc23)cc1 ... inactive
29. Cc1cc(C(=O)COc2cccnc2[N+](=O)[O-])c(C)n1-c1ccccc1F ... active
30. COc1ccc(-c2cc(-c3nc4ccccn4c3NCc3ccccc3)ccc2OC)cc1 ... active
31. CC1CCC(C(C)C)C(OC(=O)Cn2c(-c3ccccc3)[n+](C)c3ccccc32)C1 (configuration not stated) ... inactive
32. N#Cc1ccc(-c2ccc(OCC(=O)Nc3cccnc3)cc2)cc1 ... active
33. COc1ccccc1/C=C/C1(C(=O)NC2CCCC2)CC(=O)N1c1ccc(F)cc1 (configuration not stated) ... active
34. Cc1ccc(OCC(=O)c2cc(C)n(Cc3cccs3)c2C)c([N+](=O)[O-])n1 ... active
35. Cc1ccc(NC(=O)COC(=O)C2=NN(c3ccccc3)C(=O)CC2)c(Br)c1 ... inactive
36. O=C(Nc1cccc(C(F)(F)F)c1)Nc1nnc([C@@H]2C[C@H](O)[C@@H](CO)O2)s1 ... inactive
37. O=C(CSCc1ccc(C(=O)O)cc1)Nc1ccccc1 ... inactive
38. Clc1ccccc1C1=Nn2c(nnc2-c2ccncc2)SC1 ... inactive
39. O=[N+]([O-])c1cccc2cnccc12 ... inactive
40. Cc1noc(/C=C/c2ccco2)c1S(=O)(=O)N1CCC(C(=O)Nc2ccc(Cl)cn2)CC1 ... inactive
41. COc1ccc(CN2C[C@H](COCc3ccccc3)Oc3cccc(N4CCCC4)c3S2(=O)=O)cc1 ... inactive
42. Cc1ccccc1C(=O)N1CCN(c2ccc(NC(=O)c3ccc4c(c3)OCO4)cc2)CC1 ... inactive

---

testedOn: Nuclear receptor coactivator 3 (Homo sapiens)
protocolText: SRC3 coactivator transcriptional activity inhibitors, confirmation, cell-based, luminescence, quadruplicate (AID 588792);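 also: 0% = DMSO treated cells and 100% = gossypol at 36 µM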
runConditions: HEK293 GAL4-SRC3 luciferase reporter, at 3.6 µM, hits give high values
valueKind: inhibition (%)

1. O=C(NCc1ccc(Cl)cc1)c1csc(-c2cccnc2)n1 ... 13.6
2. COc1ccc2[nH]c3c(c2c1)CCNC3=O ... 53.2
3. CCCNC(=O)c1nnsc1S(=O)(=O)c1ccc(Cl)cc1 ... 55.7
4. Nc1ncnc2c(C3OC(CO)C(O)C3O)scc12 (stereo unspecified) ... 90.7
5. CN(C)CCNc1ccc(CO)c2oc3ccc(O)cc3c(=O)c12 ... 4.57
6. O=[N+]([O-])c1ccc(Sc2cccc[n+]2[O-])c2nonc12 ... 98.7

---

Each entry below carries its recorded inhibition.
testedOn: Nuclear receptor coactivator 3 (Homo sapiens) (UniProt Q9Y6Q9)
Sequence (Q9Y6Q9 whole entry, looked up): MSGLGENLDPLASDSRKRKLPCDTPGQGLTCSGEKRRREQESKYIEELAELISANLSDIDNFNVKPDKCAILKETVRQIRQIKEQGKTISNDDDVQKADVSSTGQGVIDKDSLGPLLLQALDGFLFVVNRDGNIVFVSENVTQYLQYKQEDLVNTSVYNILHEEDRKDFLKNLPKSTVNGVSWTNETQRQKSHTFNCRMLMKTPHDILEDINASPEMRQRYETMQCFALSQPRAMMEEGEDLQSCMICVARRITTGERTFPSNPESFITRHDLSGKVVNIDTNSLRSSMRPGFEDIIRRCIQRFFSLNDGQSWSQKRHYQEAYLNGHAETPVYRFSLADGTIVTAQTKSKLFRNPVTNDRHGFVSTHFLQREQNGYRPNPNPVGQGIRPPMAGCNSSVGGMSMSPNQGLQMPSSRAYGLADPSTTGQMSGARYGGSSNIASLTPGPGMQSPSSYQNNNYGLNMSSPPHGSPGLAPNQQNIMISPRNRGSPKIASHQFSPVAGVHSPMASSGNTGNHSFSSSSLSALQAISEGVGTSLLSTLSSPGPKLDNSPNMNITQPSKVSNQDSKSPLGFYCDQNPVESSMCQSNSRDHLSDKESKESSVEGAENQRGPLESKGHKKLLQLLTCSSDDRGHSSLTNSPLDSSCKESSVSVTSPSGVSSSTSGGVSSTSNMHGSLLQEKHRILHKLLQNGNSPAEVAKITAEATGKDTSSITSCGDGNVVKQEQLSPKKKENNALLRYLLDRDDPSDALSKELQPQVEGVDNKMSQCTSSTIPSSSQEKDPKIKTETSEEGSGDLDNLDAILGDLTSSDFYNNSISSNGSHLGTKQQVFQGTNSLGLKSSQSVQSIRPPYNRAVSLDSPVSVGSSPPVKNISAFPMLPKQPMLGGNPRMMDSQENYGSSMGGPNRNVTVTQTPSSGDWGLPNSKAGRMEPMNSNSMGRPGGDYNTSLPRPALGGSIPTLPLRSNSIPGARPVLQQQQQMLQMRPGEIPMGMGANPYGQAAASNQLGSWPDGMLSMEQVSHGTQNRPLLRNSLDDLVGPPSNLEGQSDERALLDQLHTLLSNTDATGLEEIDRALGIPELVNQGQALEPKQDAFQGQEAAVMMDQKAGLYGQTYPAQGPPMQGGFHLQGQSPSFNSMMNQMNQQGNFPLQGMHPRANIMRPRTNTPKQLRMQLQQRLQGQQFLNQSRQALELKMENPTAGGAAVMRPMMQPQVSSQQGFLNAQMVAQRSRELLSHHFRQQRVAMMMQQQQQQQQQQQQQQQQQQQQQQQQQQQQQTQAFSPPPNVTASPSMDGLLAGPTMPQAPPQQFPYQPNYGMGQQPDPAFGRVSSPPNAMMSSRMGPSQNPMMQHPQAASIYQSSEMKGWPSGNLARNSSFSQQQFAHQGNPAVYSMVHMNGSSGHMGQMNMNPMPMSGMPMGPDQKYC
protocolText: SRC3 coactivator transcriptional activity inhibitors, confirmation, cell-based, luminescence, quadruplicate (AID 588792);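 also: 0% = DMSO treated cells and 100% = gossypol at 36 µM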
runConditions: HEK293 GAL4-SRC3 luciferase reporter, at 3.6 µM, hits give high values
valueKind: inhibition (%)

1) O=C(NCc1ccccc1)c1cccc(NC(=O)c2ccco2)c1 ... 18.4
2) COn1c(C)c(C(C)=O)c2c3nonc3ccc21 ... 22.5
3) Cc1cccc(OC(=O)NCCOC(=O)N(O)c2ccc(Cl)cc2)c1 ... 4.94
4) COc1ccc(/C=C2\SC(=S)N(CCCC(=O)N3CCCCC3CCO)C2=O)cc1 (stereo unspecified) ... 20.9
5) O=C(NNc1ccc(O)cc1)c1ccc(Br)cc1 ... 31.5
6) Cc1cccc2cc(-c3ccccc3)c(-c3ccccc3)c[n+]12 ... 4.1
7) CN(Cc1ccccc1)C1=CC(=[N+]2CCCCC2)CC(C)(C)C1 ... 43.1
8) CN=C1S/C(=C\c2cc(C)n(-c3ccccc3F)c2C)C(=O)N1C ... -15.3
9) O=C(N/N=C/c1ccc(O)cc1O)/C(=C/c1ccccc1)CCO ... 22.1
10) Cc1cc(C)nc(SCc2ccc(C(=O)N/N=C/c3cccc(O)c3O)cc2)n1 ... 28.5
11) C#CCN(C[C@@H]1[C@@H](OC(=O)NCCCCCC)[C@@H](OC(=O)NCCCCCC)Cn2c(=O)ccc(=O)n21)S(=O)(=O)c1ccc(C)cc1 ... 23.3
12) CC(C)(C)c1ccc(C(=O)Nc2ccc(CC(=O)O)cc2)o1 ... 54.1
13) COc1ccc2[nH]c(=O)c(CN(CCN3CCCC3)C(=O)Nc3ccccc3Cl)cc2c1 ... 31.9
14) NCCCNc1nc(N)c([N+](=O)[O-])c(NC2CCCCC2)n1 ... 62.2
15) Cc1cccc(C)c1-n1c(C)cc(/C=N\NC(=O)CC(=O)NC2CCCCC2)c1C ... -17.4
16) COc1cc2oc(=O)cc(-c3ccc(-c4ccc(CO)cc4)cc3)c2c(OC)c1OC ... 45.9
17) Brc1ccc2ncnc(Nc3ccc(N4CCOCC4)cc3)c2c1 ... 57.9
18) CC1(C)CC2CC(C)(CN2S(=O)(=O)c2ccc(C(=O)Nc3ccc(S(=O)(=O)N4CCOCC4)cc3)cc2)C1 (stereo unspecified) ... 24.1
19) CCOC(=O)/C(C#N)=C/c1cc(C)n(-c2ccccc2)c1C ... 18.5
20) COc1ccc(CNc2nn3c(-c4cccc(C(=O)N(C)C)c4)cnc3s2)cc1 ... 50.3
21) Nc1nc(NCc2ccco2)nc(N2CCCCCC2)c1[N+](=O)[O-] ... -0.71
